Just for reference, patent US10076519B2 is where these values come from.

Tested on: rabbit skeletal myofibrils (fast skeletal myofibrils)
Experiment: Activation of fast skeletal myofibrils (PUMA assay, PK/LDH-coupled ATPase at pCa25)
Assay type: biochemical
Settings: median AC1.4 reported as class; procedure of Example 39
Excerpt: Preparation of Fast Skeletal Myofibrils. […] Fast fiber activators were identified by measuring the enzymatic activity of muscle myofibril preparations using the proprietary PUMA™ (see, e.g., U.S. Pat. Nos. 6,410,254, 6,743,599, 7,202,051, and 7,378,254) assay system. […] This assay regenerates myosin-produced ADP into ATP by oxidizing NADH, producing an absorbance change at 340 nm. […]
quantity.kind: Mean AC1.4

// below: answered compounds
> print(dat)
                                   compound                             system.tested  quantity.kind  reported.result
1  Cc1cc(NCC2(c3ncccc3F)CCC2)nnc1-c1cccc(C#N)c1  rabbit skeletal myofibrils (fast skeletal myofibrils)     Mean AC1.4   C (C=10-20 uM)
2  CNC(=O)c1cc(-c2ccc(NC[C@]3(c4ncccc4F)C[C@H](F)C3)nn2)ccc1F  rabbit skeletal myofibrils (fast skeletal myofibrils)     Mean AC1.4   C (C=10-20 uM)
3  NC(=O)Cc1csc(NC(=O)c2ccc(NCC3(c4ncccc4F)CCC3)nn2)n1  rabbit skeletal myofibrils (fast skeletal myofibrils)     Mean AC1.4      A (A=<1 uM)
4  NC(=O)c1cccc(-c2ccc(NC[C@]3(c4ncccc4F)C[C@H](F)C3)nn2)c1O  rabbit skeletal myofibrils (fast skeletal myofibrils)     Mean AC1.4      A (A=<1 uM)
5  CN(C)C(=O)Cc1cnc(-c2ccc(NCC3(c4ncccc4F)CCC3)nn2)s1  rabbit skeletal myofibrils (fast skeletal myofibrils)     Mean AC1.4    B (B=1-10 uM)

Query :: So what does the record say about Mean AC1.4 for CNC(=O)c1ccc(O)c(-c2ccc(NC[C@]3(c4ncccc4F)C[C@H](F)C3)nn2)c1 ?
Result :: B (B=1-10 uM)

Query :: Entry CCOC(=O)c1nc(NC(=O)c2ccc(NCC3(c4ncccc4F)CCC3)nn2)cn1C has what Mean AC1.4?
Result :: D (D=>20 uM)

Query :: Mean AC1.4 for CNC(=O)c1ccc(NCC2(c3ncccc3F)CCC2)nn1 ?
Result :: D (D=>20 uM)

Query :: Request the reported Mean AC1.4 associated with O=C(NCC(F)(F)F)c1ccc(F)c(-c2ccc(NC[C@]3(c4ncccc4F)C[C@H](F)C3)nn2)c1
Result :: B (B=1-10 uM)

Query :: Would you kindly share the measured Mean AC1.4 for CCOC(=O)c1cc(-c2ccc(NC[C@]3(c4ncccc4F)C[C@H](F)C3)nn2)ccc1NC ?
Result :: A (A=<1 uM)
